# Experiment Notes: Cytotoxicity against Felis catus (cat) CRFK cells assessed as change in cellular morphology
# Type: cell-based
# Condition Info: CRFK cells
Measured Quantity: CC50

Lookup: Record request: CC50 value, item `Nc1nc2c(ncn2COC(CO)CO)c(=O)[nH]1`
Found: > 100 µM

###

# System: CCRF-CEM
# Experiment Notes: Cytotoxicity against Homo sapiens (human) CEM cells assessed as growth inhibition after 72 hr by coulter counter analysis
# Type: functional, cell-based
Could you please report measured pIC50 for the items listed next?
Give bare numbers, as −log10 of the molar value.

Reference set, count: 2
CCN(CC)CN1C(=O)/C(=N/NC(=S)Nc2ccc(Cl)cc2)c2ccccc21    5.00
CCN(CC)CN1C(=O)/C(=N/NC(=S)Nc2ccc(C)cc2)c2ccccc21    4.92

Now let's try a different one.
Lookup: Record request: pIC50 value, item `CCN(CC)CN1C(=O)/C(=N/NC(=S)Nc2ccccc2)c2ccccc21`
Found: 4.96

###

# Tested on: Coxsackievirus B4
# Experiment Notes: Antiviral activity against Human coxsackievirus B4 infected human HeLa cells assessed as reduction of virus-induced cytopathic effect after 3 days by colorimetric formazan-based MTS assay
# Assay type: functional, organism-based
# Condition Info: Enterovirus B, 72 h
Could you please report measured EC50 for the items listed next?

Reference set, count: 2
CCN(CC)CN1C(=O)/C(=N/NC(=S)Nc2ccccc2)c2cc(Cl)ccc21    > 20 µM
CCN(CC)CN1C(=O)/C(=N/NC(=S)Nc2ccc(OC)cc2)c2cc(Cl)ccc21    > 0.8 µM

Now let's try a different one.
Lookup: API: value(readout=EC50, system=Coxsackievirus B4) for record `CCN(CC)CN1C(=O)/C(=N/NC(=S)Nc2ccc(C)cc2)c2ccccc21`
Found: > 20 µM

###

Could you please report measured EC50 for the items listed next?
# Test system: Respiratory syncytial virus
# Experiment Notes: Antiviral activity against Respiratory syncytial virus infected human HeLa cells assessed as reduction of virus-induced cytopathic effect after 3 days by colorimetric formazan-based MTS assay
# Format: functional, organism-based
# Condition Info: 72 h

CCN(CC)CN1C(=O)/C(=N/NC(=S)Nc2ccc(C)cc2)c2cc(Cl)ccc21    > 4 µM
CCN(CC)CN1C(=O)/C(=N/NC(N)=S)c2ccccc21    > 100 µM
CCN(CC)CN1C(=O)/C(=N/NC(=S)Nc2ccc(OC)cc2)c2cc(Cl)ccc21    > 0.8 µM

Please state, for each entry, its recorded EC50.
1. CCN(CC)CN1C(=O)/C(=N/NC(=S)Nc2ccc(OC)cc2)c2ccccc21
2. Nc1ncnc2c1ncn2C[C@H](O)CO [(S)-DHPA]
3. CCN(CC)CN1C(=O)/C(=N/NC(=S)Nc2ccc(Cl)cc2)c2ccccc21

Found:
["> 4 µM", "> 250 µM", "> 4 µM"]

###

# System: Bacillus subtilis
# Experiment Notes: Antibacterial activity against Bacillus subtilis assessed as growth inhibition at 50 ug/ml by cup-plate method (reference value: 8 to 10 mm)
# Assay type: functional
# Condition Info: read-out: DIZ
Measured Quantity: zone of inhibition at 50 µg/mL (mm)
Numbers only, in mm.

Reference set, count: 2
CCN(CC)CN1C(=O)/C(=N/NC(=S)Nc2ccc(OC)cc2)c2ccccc21    11
CCN(CC)CN1C(=O)/C(=N/NC(N)=S)c2ccccc21    11

Lookup: Record request: zone of inhibition at 50 µg/mL value, item `CCN(CC)CN1C(=O)/C(=N/NC(=S)Nc2ccc(C)cc2)c2ccccc21`
Found: 21

###

# Experiment Notes: Cytotoxicity against Chlorocebus aethiops (African green monkey) Vero cells assessed as change in cellular morphology
# Assay type: cell-based
# Condition Info: chlorocebus sabaeus
Measured Quantity: MCC

Reference set, count: 4
CCN(CC)CN1C(=O)/C(=N/NC(=S)Nc2ccc(C)cc2)c2cc(Cl)ccc21    ≥ 4 µM
Nc1ncnc2c1ncn2C[C@H](O)CO [(S)-DHPA]    > 250 µM
CCN(CC)CN1C(=O)/C(=N/NC(N)=S)c2cc(Cl)ccc21    > 100 µM
NC(=O)c1ncn([C@@H]2O[C@H](CO)[C@@H](O)[C@H]2O)n1    > 250 µM

Now let's try a different one.
Lookup: Record request: MCC value, item `CCN(CC)CN1C(=O)/C(=N/NC(N)=S)c2ccccc21`
Found: > 100 µM

###

Could you please report measured MCC for the items listed next?
# Experiment Notes: Cytotoxicity against MDCK cells assessed as change in cellular morphology
# Format: cell-based, Canis lupus familiaris
# Condition Info: dog, MDCK cells

Reference set, count: 2
CCN(CC)CN1C(=O)/C(=N/NC(=S)Nc2ccccc2)c2cc(Cl)ccc21    ≥ 800 nM
CCN(CC)CN1C(=O)/C(=N/NC(=S)Nc2ccc(OC)cc2)c2cc(Cl)ccc21    ≥ 800 nM

Now let's try a different one.
Lookup: Record request: MCC value, item NC12CC3CC(CC(C3)C1)C2 [AMANTADINE]
Found: > 500000 nM

Recorded values, source ChEMBL document CHEMBL3045116.
